Entries annotated with measured hERG current change (%, negative = inhibition) at 10uM
Target: human ether-à-go-go-related gene (hERG) potassium channel (human);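 further: peak tail current of the secondary pulse compared with the same well before compound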
Sequence (Q12809 whole entry, looked up): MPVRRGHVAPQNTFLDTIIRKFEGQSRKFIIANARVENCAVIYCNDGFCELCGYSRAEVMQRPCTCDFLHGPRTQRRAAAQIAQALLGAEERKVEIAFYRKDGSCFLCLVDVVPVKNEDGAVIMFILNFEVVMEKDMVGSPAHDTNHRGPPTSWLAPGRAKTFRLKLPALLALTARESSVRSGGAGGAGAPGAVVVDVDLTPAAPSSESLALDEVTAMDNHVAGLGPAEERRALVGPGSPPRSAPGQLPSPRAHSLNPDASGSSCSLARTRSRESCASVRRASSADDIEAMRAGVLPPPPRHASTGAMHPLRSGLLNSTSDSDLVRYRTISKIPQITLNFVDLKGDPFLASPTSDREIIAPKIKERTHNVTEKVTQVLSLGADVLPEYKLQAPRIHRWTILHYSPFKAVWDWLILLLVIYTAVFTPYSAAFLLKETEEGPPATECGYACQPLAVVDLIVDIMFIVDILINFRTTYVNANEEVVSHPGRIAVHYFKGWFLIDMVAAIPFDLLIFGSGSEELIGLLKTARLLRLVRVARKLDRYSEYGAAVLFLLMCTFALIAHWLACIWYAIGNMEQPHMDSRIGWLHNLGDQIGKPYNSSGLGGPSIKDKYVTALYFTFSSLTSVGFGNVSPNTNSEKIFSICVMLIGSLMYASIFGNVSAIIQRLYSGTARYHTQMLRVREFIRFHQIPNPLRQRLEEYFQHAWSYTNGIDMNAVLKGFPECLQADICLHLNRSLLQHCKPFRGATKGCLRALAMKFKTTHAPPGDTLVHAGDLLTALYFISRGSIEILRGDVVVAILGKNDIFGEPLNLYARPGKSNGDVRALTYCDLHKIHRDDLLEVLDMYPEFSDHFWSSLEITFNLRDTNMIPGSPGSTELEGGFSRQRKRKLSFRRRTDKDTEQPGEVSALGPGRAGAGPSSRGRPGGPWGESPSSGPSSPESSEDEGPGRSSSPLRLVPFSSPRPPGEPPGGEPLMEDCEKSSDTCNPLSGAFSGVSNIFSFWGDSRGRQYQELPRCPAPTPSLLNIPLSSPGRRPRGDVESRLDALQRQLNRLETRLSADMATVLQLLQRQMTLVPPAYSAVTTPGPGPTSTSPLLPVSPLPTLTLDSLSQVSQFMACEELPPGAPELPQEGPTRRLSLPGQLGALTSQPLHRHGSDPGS
Assay: primary screen, population patch clamp on CHO cells stably expressing hERG; higher = less effect of the substance
The whole screen tested about 310,000 compounds, of which about 14,000 (4.5%) showed an effect of 50% or more. Effects have a minus sign here. What follows is part of a selection rich in strong results, with near analogues and random picks from the rest.
property: hERG current change (%, negative = inhibition) at 10uM (%)

compound	units-text	reported
CC(C)CN(C(=O)COc1ccc(Br)cc1C=O)C1CCS(=O)(=O)C1 (centres unmarked)	%	-25.4
O=C(CSc1nc2ccc(Cl)cc2[nH]1)NCc1ccco1	%	-51.8
Cl.O=C(Cc1ccccc1)NC1CCN(Cc2ccccc2)CC1	%	1.21
Cc1cccc(Cn2c(SCC(=O)Nc3ccccc3)nc3c2c(=O)[nH]c(=O)n3C)c1	%	-30.2
COCCSc1nc2c(c(=O)[nH]c(=O)n2C)n1Cc1cccc(C)c1	%	-45.6
Cc1ccc(Cn2c(N3CCCCCC3)nc3c2c(=O)[nH]c(=O)n3C)cc1	%	0.362
CNC(=O)NC(=O)CN1C(=O)NC2(CCOc3ccccc32)C1=O (centres unmarked)	%	18.9
CCNc1nc(NCC)nc(OCCOC(=O)Nc2ccccc2)n1	%	-0.811
O=C(Cc1ccc(Br)cc1)NC1CCN(Cc2ccccc2)CC1	%	-56
CN(CC(=O)NC1CCN(Cc2ccccc2)CC1)S(=O)(=O)c1ccc(Cl)cc1	%	-40.2
O=C(Cn1cc2c(n1)CCCC2)NC1CCN(Cc2ccccc2)CC1	%	-8.32
CCOC(=O)c1sc(N(Cc2ccccc2)C(=O)COC(=O)c2ccccc2O)nc1C	%	-5.14
Cn1c(=O)[nH]c(=O)c2c1nc(SCCN1CCOCC1)n2CCCc1ccccc1	%	-46.9
Cn1c(=O)[nH]c(=O)c2c1nc(SCCO)n2CCCc1ccccc1	%	-4.68
NC(=O)c1c(-c2cccs2)csc1N	%	3.94
CN(CC(=O)NC1CCN(Cc2ccccc2)CC1)S(=O)(=O)c1ccc(Cl)s1	%	-67.9
CCN(CC)CCN1C(=O)C(=O)/C(=C(/O)c2ccc(OC(C)C)cc2)C1c1cccs1 (centres unmarked)	%	0.529
O=C(CCc1nc2ccccc2[nH]1)N1CCN(C(=O)c2ccco2)CC1	%	6.93
CCOc1ccc(S(=O)(=O)NCCC(=O)NC2CCN(Cc3ccccc3)CC2)cc1	%	-21.8
COc1ccc(-c2nc(NC(=O)CSCCO)sc2C)cc1	%	-4.57
Cc1cccc(Cn2c(SCCN3CCCCC3)nc3c2c(=O)[nH]c(=O)n3C)c1	%	-79.1
Cn1c(=O)[nH]c(=O)c2c1nc(SCC(=O)O)n2Cc1ccccc1	%	-5.45
CCNc1nc(NCC)nc(SCCOC(=O)Nc2ccccc2)n1	%	-71
CC(NC(=O)COC(=O)/C=C/c1cccc(C(F)(F)F)c1)c1ccccc1 (centres unmarked)	%	15.2
CCC(C)Sc1cc(-c2nc3ccc(C)cn3c2NCc2ccccc2)ccc1OC.O=C(O)C(F)(F)F (centres unmarked)	%	-1.12
O=C(Cn1cc2c(n1)CCCCC2)NC1CCCCCC1	%	0.992
COC(=O)C1=C(C)NC2=C(C(=O)c3ccccc32)C1c1cccc(OC)c1 (centres unmarked)	%	4.97
O=C(CCNS(=O)(=O)c1ccc(Br)cc1)NC1CCN(Cc2ccccc2)CC1	%	-61.9
Cl.O=C(CSc1nc2ccccc2[nH]1)N1CCN(C(=O)c2ccco2)CC1	%	-23.4
CC(C)Cn1c(N)c(C(=O)COC(=O)c2ccc(O)cc2O)c(=O)n(C)c1=O	%	8.34
OC1COC(OCC2OC(OCc3ccccc3)C(O)C(O)C2O)C(O)C1O (centres unmarked)	%	-11.1
O=C(N/N=C/c1cc([N+](=O)[O-])ccc1O)Nc1ccccc1	%	18.2
O=C(CSc1nc2ccc(Cl)cc2[nH]1)N1CCN(C(=O)c2ccco2)CC1	%	-56.1
Cc1ccc(Cn2c(SCC(C)C)nc3c2c(=O)[nH]c(=O)n3C)cc1	%	4.21
CC(=O)Nc1ccc(S(=O)(=O)Nc2nc(CN3CCOCC3)nc3sc4c(c23)CCCC4)cc1	%	-4
Cn1c(=O)[nH]c(=O)c2c1nc(SCCN1CCCCC1)n2CCCc1ccccc1	%	-69
Cc1ccsc1C(=O)N1CCN(c2ncccn2)CC1	%	7.76
O=C(CSc1nc2ccccc2[nH]1)NCc1ccco1	%	-1.16
Cc1ccc2nc(SCC(=O)NCc3ccco3)[nH]c2c1	%	-0.695
CCOc1ccc2nc(NC(=O)C3CCN(C(=O)c4ccco4)CC3)sc2c1	%	10.1
CCNc1nc(NCC)nc(SCCOC(=O)c2ccccc2)n1	%	-39.4
